target.or.system: T1, O-GlcNAc transferase (OGT), as used in the fluorescence activity assay (human, UniProt O15294 1-1046)
T1 sequence (looked up): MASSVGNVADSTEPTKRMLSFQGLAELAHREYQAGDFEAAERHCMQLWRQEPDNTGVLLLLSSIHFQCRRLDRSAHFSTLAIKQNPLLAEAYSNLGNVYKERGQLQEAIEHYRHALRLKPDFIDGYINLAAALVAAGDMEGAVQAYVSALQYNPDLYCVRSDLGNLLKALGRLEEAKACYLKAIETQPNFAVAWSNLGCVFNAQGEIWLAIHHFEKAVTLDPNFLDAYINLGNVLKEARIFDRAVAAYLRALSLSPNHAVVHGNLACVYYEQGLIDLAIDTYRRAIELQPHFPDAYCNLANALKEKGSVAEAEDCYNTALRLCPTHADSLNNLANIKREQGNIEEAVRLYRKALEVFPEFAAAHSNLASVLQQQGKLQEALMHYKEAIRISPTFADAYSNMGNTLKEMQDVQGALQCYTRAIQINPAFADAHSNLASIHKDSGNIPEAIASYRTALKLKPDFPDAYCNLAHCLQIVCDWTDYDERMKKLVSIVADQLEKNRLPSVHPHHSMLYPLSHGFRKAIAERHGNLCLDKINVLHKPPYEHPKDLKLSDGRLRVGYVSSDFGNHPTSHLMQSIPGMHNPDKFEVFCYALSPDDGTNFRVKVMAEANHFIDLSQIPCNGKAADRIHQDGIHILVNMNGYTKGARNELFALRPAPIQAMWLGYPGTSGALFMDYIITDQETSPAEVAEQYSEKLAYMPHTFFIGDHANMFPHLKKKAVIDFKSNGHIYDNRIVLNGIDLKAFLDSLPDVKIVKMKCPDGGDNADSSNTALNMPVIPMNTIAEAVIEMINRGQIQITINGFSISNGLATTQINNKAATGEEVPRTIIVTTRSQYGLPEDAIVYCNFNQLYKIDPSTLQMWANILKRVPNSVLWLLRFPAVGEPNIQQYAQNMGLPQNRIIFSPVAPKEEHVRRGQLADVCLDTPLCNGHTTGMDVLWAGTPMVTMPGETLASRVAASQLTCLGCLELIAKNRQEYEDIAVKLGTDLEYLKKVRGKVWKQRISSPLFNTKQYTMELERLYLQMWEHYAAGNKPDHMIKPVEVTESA
measurement.notes: enzyme inhibition kinetics
pKi: −log10 of the molar value.
test.readout: pKi

>  <binder>
GDFPVMFMPKYSIIF [peptide P11]

>  <endpoint.result>
5.42

$$$$
